Provide the recorded z-score for the entries that follow.
Biological target: NADPH oxidase 2 (Homo sapiens) (UniProt P04839)
Sequence (P04839 whole entry, looked up): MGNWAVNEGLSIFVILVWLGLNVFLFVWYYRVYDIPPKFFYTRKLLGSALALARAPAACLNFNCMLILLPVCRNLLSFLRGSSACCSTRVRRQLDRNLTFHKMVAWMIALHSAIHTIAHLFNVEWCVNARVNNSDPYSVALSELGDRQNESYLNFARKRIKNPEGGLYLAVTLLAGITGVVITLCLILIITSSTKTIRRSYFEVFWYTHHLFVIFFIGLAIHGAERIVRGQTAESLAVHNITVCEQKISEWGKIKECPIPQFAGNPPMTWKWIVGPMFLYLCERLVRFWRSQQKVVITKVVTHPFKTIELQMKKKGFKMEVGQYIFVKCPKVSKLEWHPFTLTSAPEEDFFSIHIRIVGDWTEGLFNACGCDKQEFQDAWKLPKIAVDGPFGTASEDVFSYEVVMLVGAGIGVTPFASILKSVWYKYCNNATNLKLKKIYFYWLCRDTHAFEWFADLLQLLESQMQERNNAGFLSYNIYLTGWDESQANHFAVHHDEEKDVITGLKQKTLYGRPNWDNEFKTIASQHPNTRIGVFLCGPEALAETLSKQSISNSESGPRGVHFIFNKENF
Test: NOX2-dependent H2O2 signal modulators, primary screen, NOX inhibitor project, cell-based, HEK293-NOX2, PMA-stimulated, Amplex Red fluorescence (AID 1159); note: test concentration not given here
Conditions: 45 min, higher = more signal, called active from +8 up or from −8 down
One number for each entry.

As a guide, the following entries are already answered.
compound	z-score
C[C@@]12COC[C@]13C=C(Br)[C@H](C2)[C@@]1(CO1)C3=O	0.51
COc1ccc(CCNC(=O)[C@@]2(Cc3ccccc3I)c3ccccc3C(=O)N(Cc3ccccc3Cl)[C@H]2c2ccc(CO)cc2)cc1	0.898

For each of the compounds below, note its z-score.
1. C=CCC(OC(C)=O)[C@@H]1[C@@H](N(Cc2cc3ccccc3o2)C(=O)c2ccc(-c3ccccc3)cc2)c2cc(OCCCO)ccc2N1C(=O)Cc1ccc(OC)cc1 (some centres not stated)
2. COCC(=C=CC[C@@H](O)c1cccc(OCCO)c1)CCO
3. COc1cc(NN2C(C(O)c3ccccc3)C=CC3C(=O)N(C)C(=O)C32)cc(OC)c1OC (configuration not stated)
4. COC(=O)[C@@]1(Cc2ccccc2CN=[N+]=[N-])N=C(c2ccc(OCCCO)cc2)O[C@H]1c1ccccc1CN=[N+]=[N-]
5. CCCCC=C[C@@H](NC(=O)c1ccccc1)c1ccccc1
6. C[C@]1(C(=O)O)c2ccccc2C(=O)N(Cc2ccc(OC(F)(F)F)cc2)[C@H]1c1ccc(CO)cc1

Reply |
-0.0713
-0.274
-3.07
-2.2
-0.474
0.948

Provide each entry's z-score from the list below.
1. O=C(NCCN1CCOCC1)[C@@H]1c2ccccc2C(=O)N(Cc2ccccc2)[C@H]1c1ccc(CO)cc1
2. C=C(COC)/C(=C/C[C@@H](OC(C)=O)c1ccc(CO)o1)c1cc(C(=O)OC)ccc1OC
3. COc1cc(CO)cc(I)c1O[C@H]1C=C(C(=O)NCCO)C[C@@H](NCC2CCCCC2)[C@@H]1O
4. C=C(CCCC)C(=O)CC[C@H](OC(C)=O)c1ccc(OCCO)cc1

Reply |
[-1.71, 0.184, 0.132, -3.16]

# per-item lookup of z-score; items listed below
1. COC(=O)c1c2oc(c1C(=O)OC)C(=O)N1CCC[C@H]1Cn1nncc1CN(Cc1ccccc1)C(=O)N[C@H](CO)CC2
2. [N-]=[N+]=NCc1ccccc1C[C@]1(C(=O)N2CCOCC2)COC(c2ccc(OCCCO)cc2)=N1
3. Cc1ccc([C@H]2C(C(=O)O)=C[C@@H](C(C)(C)C)N2S(=O)(=O)c2ccc(C)cc2)cc1
4. CCCCC(=O)N(CCN1CCOCC1)[C@@H]1CC(C(=O)NCCO)=C[C@H](Oc2c(I)cc(CO)cc2OC)[C@H]1O
5. O=C1OCCC=C[C@H]2OC34C=CCN(c5ccc(Cl)cc5)C(=O)[C@H]3N(CCCCCCO)C(=O)[C@@H]4C12 (some centres not stated)

Reply |
1: -0.521; 2: -3.84; 3: 0.96; 4: -0.381; 5: 1.47

---

Target: Luciferin 4-monooxygenase (Photinus pyralis)
Assay: firefly luciferase enzyme inhibitors, primary screen, biochemical, luminescence, purified enzyme, 2006 set (AID 1141);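 note: cell-free assay with purified firefly luciferase at 100 ng per well in PBS; test concentration not given here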
Details: SteadyGlo luminescence, 30 min, higher = more signal, called active from +8 up or from −8 down
readout: z-score
Answers are plain numbers.

Solved entries:
compound	assay.system	z-score
COC(=O)C1=CC(CCCO)=CC(C)N(Cc2cccc(OC(F)(F)F)c2)C=C1C(=O)OC (centres undefined)	Luciferin 4-monooxygenase (Photinus pyralis)	0.347
C=C(C)C1CCC(C(O)C2C=CC3C(=O)N(C)C(=O)C3N2Nc2cc(OC)c(OC)c(OC)c2)CC1 (centres undefined)	Luciferin 4-monooxygenase (Photinus pyralis)	-1.07
O=C1NC(=O)C2C1C=CC(C(O)c1ccccn1)N2Nc1ccc(Cl)cc1Cl (centres undefined)	Luciferin 4-monooxygenase (Photinus pyralis)	0.237

Okay, now this compound:
Ask | Identify the reported z-score for the following entry. COC(=O)C(CC#Cc1ccc2c(c1)[C@]1(C(=O)N2)[C@H](c2ccc(OCCO)cc2)N2[C@H](c3ccccc3)[C@H](c3ccccc3)OC(=O)[C@H]2[C@@H]1C(=O)N1CCN(c2ncccn2)CC1)C(=O)OC
Reply | -0.195

From: PubChem BioAssay
